- Tested on: HEK-293T
- assay remarks: Multiplex assay against HEK293T;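 also: share of the cells with healthy nuclei that show this phenotype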
- Type: toxicity, cell-based
- recorded conditions: human, 24 h, 1 µM, compound concentration 1 uM, replicate 1
Please note: 1.0 applies when Population Tubulin-Different-Phenotype (%) is 50% or greater, and 0.0 applies otherwise.

| molecule | category |
| --- | --- |
| CCc1ccc(OCc2ccccc2C(=O)Nc2ccc3nc(C)cc(N)c3c2)cc1.Cl | 1.0 |
| C=CC(=O)Nc1cccc(Sc2nc(Nc3ccc(N4CCN(C)CC4)cc3)ncc2Cl)c1 | 1.0 |
| COc1ccc(-c2ccc3ncc4c(c3c2)n(-c2ccc(N3CCNCC3)c(C(F)(F)F)c2)c(=O)n4C)cn1.O=C(O)/C=C\C(=O)O | 1.0 |
| COc1ccccc1CN[C@H]1C2CCN(CC2)[C@H]1C(c1ccccc1)c1ccccc1 | 1.0 |
| CC(C)Oc1ccccc1C(=O)Nc1ccccc1C(=O)Nc1cccc(S(=O)(=O)C(F)(F)F)c1 | 1.0 |
| COc1cc(Nc2nccc(-c3cnn4nc(OC)ccc34)n2)cc(C(F)(F)F)c1 | 0.0 |
| O=C(c1cc2c(cc1F)OC(c1ccc(F)cc1)(c1ccc(Cl)cc1Cl)O2)N1CCOCC1 (stereo unspecified) | 0.0 |
| COc1cc2ncn(-c3cc(OCc4ccccc4C(F)(F)F)c(C(N)=O)s3)c2cc1OC [GW843682X] | 1.0 |
| CC(C)c1noc(N2CCC(COc3ccc(-c4ccc(S(C)(=O)=O)cc4)nc3)CC2)n1 | 0.0 |
| CNC(=O)Nc1ccc(-c2nc(N3CC4CCC(C3)O4)c3cnn(C4CCC5(CC4)OCCO5)c3n2)cc1 | 0.0 |
| Cl.O=C(O)c1cc(-c2ccc(C3CCNCC3)cc2)c2ccc(-c3ccc(C(F)(F)F)cc3)cc2c1 | 0.0 |
| Cc1cccc(CN2CCN(C(c3ccccc3)c3ccc(Cl)cc3)CC2)c1.Cl.Cl (stereo unspecified) | 0.0 |
| COC(=O)C1=C(C)NC(C)=C(C(=O)OCCCN2CCC(c3ccccc3)(c3ccccc3)CC2)[C@H]1c1cccc([N+](=O)[O-])c1 | 1.0 |
| CCc1nn(CCCN2CCN(c3cccc(Cl)c3)CC2)c(=O)n1CCOc1ccccc1.Cl [NEFAZODONE HYDROCHLORIDE] | 1.0 |
| O=c1[nH]c2ccccc2n1C1CCN(Cc2ccc(-c3[nH]c4cc5ncnc5cc4nc3-c3ccccc3)cc2)CC1 | 0.0 |
| CNC(=O)Nc1ccc2c(c1)[C@@]1(CC2)OC(=O)N(CC(=O)N(Cc2ccc(F)cc2)[C@@H](C)C(F)(F)F)C1=O | 1.0 |

----------
- Test system: Fibroblast
- assay remarks: Multiplex assay against human fibroblast
- Type: toxicity, cell-based
- recorded conditions: 12 h, 10 µM, compound concentration 10 uM, replicate 1
Classify: Y when Total Cell Count is strictly less than 200; N when Total Cell Count is not.

| compound | assay system | category |
| --- | --- | --- |
| O=C(c1cc2c(cc1F)OC(c1ccc(F)cc1)(c1ccc(Cl)cc1Cl)O2)N1CCOCC1 (stereo not given) | Fibroblast | Y |
| Cc1cccc(CN2CCN(C(c3ccccc3)c3ccc(Cl)cc3)CC2)c1.Cl.Cl (stereo not given) | Fibroblast | Y |
| Cc1c[nH]c2nccc(Oc3c(F)cc(Nc4cc(Cl)nc(N)n4)cc3F)c12 | Fibroblast | Y |
| O=c1[nH]c2ccccc2n1C1CCN(Cc2ccc(-c3[nH]c4cc5ncnc5cc4nc3-c3ccccc3)cc2)CC1 | Fibroblast | N |
| Cc1ccccc1C(c1ccccc1C)N1C2CCC1CC(O)(c1ccccc1)C2 (stereo not given) | Fibroblast | Y |
